Ref: paper PMC6204601

Test system: Singapore wild-type zebrafish embryos
Assay type: in vivo, Danio rerio
Settings: zebrafish embryos, 96 h exposure; read-out: LC50 (Danio rerio) SG-WT
Assignment: determine reported LC50 for the given molecules.
Number plus unit, in that order.

Worked cases, LC50 given:
q: Name the reported LC50 value associated with the molecule F[P-](F)(F)(F)(F)F.Oc1ccc(N=Nc2ccccn2)cc1.[I][Os+].c1ccc(-c2ccccc2)cc1 [Complex 13, [Os(Azpy-OH)(biphenyl)I]PF6]
a: 8 µM

q: // returns reported LC50 for input Cc1ccc(S(=O)(=O)[N]2[Os][NH][C@H](c3ccccc3)[C@H]2c2ccccc2)cc1.c1ccc(-c2cccc(-c3ccccc3)c2)cc1 [Complex 8, [Os(terphenyl)(Ts-DPEN)]]
a: 0.7 µM

Others:
q: State the recorded LC50 for this entry: Cc1ccc(C(C)C)cc1.[NH-]C(c1ccccc1)C([N-]S(=O)(=O)c1ccc([N+](=O)[O-])cc1)c1ccccc1.[Os+2] (stereo not drawn) [Complex 3, [Os(p-cymene)(Ns-DPEN)]]
a: 1.9 µM

----------
Test system: A2780Cis cisplatin-resistant ovarian carcinoma cells
Assay: Sulforhodamine B antiproliferative assay, A2780Cis
Assay type: cell-based, human
Conditions: 24 h drug exposure + 72 h recovery, SRB
Measurement Name: log10 of IC50 (log10 of the value in µM)
Hello, just confirming the data are log10 of IC50 with units of µM.

Reference set (10 entries):
q: Which log10 of IC50 value belongs to N.N.[Cl][Pt][Cl] [cisplatin, reference compound] ?
a: 1.06

q: What does the data say about its log10 of IC50? Entry: Cc1ccc(C(C)C)cc1.O=S(=O)(c1ccccc1)[N]1[Os][NH][C@H](c2ccccc2)[C@H]1c1ccccc1 [Complex 5, [Os(p-cymene)(Bs-DPEN)]]
a: 1.32

q: I am curious: what log10 of IC50 value has been reported for CN(C)c1ccc(N=Nc2ccccn2)cc1.Cc1ccc(C(C)C)cc1.F[P-](F)(F)(F)(F)F.[Cl][Os+] [Complex 9, [Os(Azpy-NMe2)(p-cymene)Cl]PF6] ?
a: -0.43

q: State the recorded log10 of IC50 for this entry: CN(C)c1ccc(N=Nc2ccccn2)cc1.Cc1ccc(C(C)C)cc1.F[P-](F)(F)(F)(F)F.[I][Os+] [Complex 10, [Os(Azpy-NMe2)(p-cymene)I]PF6]
a: -0.82

q: Can you share its log10 of IC50? I mean this compound: Cc1ccc(C(C)C)cc1.Cc1ccc(S(=O)(=O)[N-]C(c2ccccc2)C([NH-])c2ccccc2)cc1.[Os+2] (stereo not shown) [Complex 1, [Os(p-cymene)(Ts-DPEN)]]
a: 1.33

q: Param item = Cc1ccc(S(=O)(=O)[N]2[Os][NH][C@H](c3ccccc3)[C@H]2c2ccccc2)cc1.c1ccc(-c2ccccc2)cc1 [Complex 7, [Os(biphenyl)(Ts-DPEN)]] ; retrieve measured log10 of IC50.
a: 1.41

q: Which log10 of IC50 is listed for CS(=O)(=O)[N]1[Os][NH][C@H](c2ccccc2)[C@H]1c1ccccc1.Cc1ccc(C(C)C)cc1 [Complex 2, [Os(p-cymene)(Ms-DPEN)]] ?
a: 1.60

q: // query log10 of IC50 value for entry Cc1ccc(C(C)C)cc1.O=S(=O)(c1ccc(F)cc1)[N]1[Os][NH][C@H](c2ccccc2)[C@H]1c1ccccc1 [Complex 4, [Os(p-cymene)(Fb-DPEN)]]
a: 1.18

q: Would you mind telling me what log10 of IC50 value was observed for Cc1ccc(C(C)C)cc1.[NH-]C(c1ccccc1)C([N-]S(=O)(=O)c1ccc([N+](=O)[O-])cc1)c1ccccc1.[Os+2] (stereo not shown) [Complex 3, [Os(p-cymene)(Ns-DPEN)]] ?
a: 1.32

q: Name the reported log10 of IC50 value associated with the compound Cc1ccc(S(=O)(=O)[N]2[Os][NH][C@H](c3ccccc3)[C@H]2c2ccccc2)cc1.c1ccc(-c2cccc(-c3ccccc3)c2)cc1 [Complex 8, [Os(terphenyl)(Ts-DPEN)]]
a: 1.02

For each listed entry, give its log10 of IC50.
1. CN(C)c1ccc(N=Nc2ccccn2)cc1.F[P-](F)(F)(F)(F)F.[Cl][Os+].c1ccc(-c2ccccc2)cc1 [Complex 11, [Os(Azpy-NMe2)(biphenyl)Cl]PF6]
2. F[P-](F)(F)(F)(F)F.Oc1ccc(N=Nc2ccccn2)cc1.[I][Os+].c1ccc(-c2ccccc2)cc1 [Complex 13, [Os(Azpy-OH)(biphenyl)I]PF6]
3. CN(C)c1ccc(N=Nc2ccccn2)cc1.F[P-](F)(F)(F)(F)F.[I][Os+].c1ccc(-c2ccccc2)cc1 [Complex 12, [Os(Azpy-NMe2)(biphenyl)I]PF6]

a:
[1.23, -0.89, -0.96]

----------
System: A549 lung carcinoma cells
Experiment: Sulforhodamine B antiproliferative assay, A549
Assay type: cell-based, human
Details: 24 h drug exposure + 72 h recovery, SRB
Measurement Name: pIC50
One number for each entry, as −log10 of the molar value.

// below: answered compounds
q: Form field: reported pIC50 of CS(=O)(=O)[N]1[Os][NH][C@H](c2ccccc2)[C@H]1c1ccccc1.Cc1ccc(C(C)C)cc1 [Complex 2, [Os(p-cymene)(Ms-DPEN)]]
a: 4.51

q: What value of pIC50 has been recorded for this entry: F[P-](F)(F)(F)(F)F.Oc1ccc(N=Nc2ccccn2)cc1.[I][Os+].c1ccc(-c2ccccc2)cc1 [Complex 13, [Os(Azpy-OH)(biphenyl)I]PF6]
a: 6.28

# ---- query compound ----
q: Recorded pIC50 of Cc1ccc(C(C)C)cc1.O=S(=O)(c1ccccc1)[N]1[Os][NH][C@H](c2ccccc2)[C@H]1c1ccccc1 [Complex 5, [Os(p-cymene)(Bs-DPEN)]] , please.
a: 4.58

----------
Give measured pIC50 for each item. Keep answers brief.
System: A549 lung carcinoma cells
Assay: Sulforhodamine B antiproliferative assay, A549
Type: cell-based, human
Details: 24 h drug exposure + 72 h recovery, SRB
Numbers only, as −log10 of the molar value.

Would you mind giving pIC50 for every molecule in the list below?
1. CN(C)c1ccc(N=Nc2ccccn2)cc1.Cc1ccc(C(C)C)cc1.F[P-](F)(F)(F)(F)F.[I][Os+] [Complex 10, [Os(Azpy-NMe2)(p-cymene)I]PF6]
2. Cc1ccc(C(C)C)cc1.Cc1ccc(S(=O)(=O)[N-]C(c2ccccc2)C([NH-])c2ccccc2)cc1.[Os+2] (stereo not shown) [Complex 1, [Os(p-cymene)(Ts-DPEN)]]
3. Cc1ccc(S(=O)(=O)[N]2[Os][NH][C@H](c3ccccc3)[C@H]2c2ccccc2)cc1.c1ccc(-c2ccccc2)cc1 [Complex 7, [Os(biphenyl)(Ts-DPEN)]]
4. CN(C)c1ccc(N=Nc2ccccn2)cc1.Cc1ccc(C(C)C)cc1.F[P-](F)(F)(F)(F)F.[Cl][Os+] [Complex 9, [Os(Azpy-NMe2)(p-cymene)Cl]PF6]
5. CN(C)c1ccc(N=Nc2ccccn2)cc1.F[P-](F)(F)(F)(F)F.[I][Os+].c1ccc(-c2ccccc2)cc1 [Complex 12, [Os(Azpy-NMe2)(biphenyl)I]PF6]
6. Cc1ccc(C(C)C)cc1.[NH-]C(c1ccccc1)C([N-]S(=O)(=O)c1ccc([N+](=O)[O-])cc1)c1ccccc1.[Os+2] (stereo not shown) [Complex 3, [Os(p-cymene)(Ns-DPEN)]]

a:
5.96
4.68
4.65
4.44
6.57
4.57

----------
System: Tubingen wild-type zebrafish embryos
Experiment: Zebrafish embryo toxicity (FET) test, TU-WT
Format: in vivo
Conditions: 96 h exposure, read-out: LC50 (Danio rerio) TU-WT
Measurement Name: LC50
# number then unit; no other words

Use these answered entries as a reference point.
q: Sample Cc1ccc(C(C)C)cc1.O=S(=O)(c1ccc(F)cc1)[N]1[Os][NH][C@H](c2ccccc2)[C@H]1c1ccccc1 [Complex 4, [Os(p-cymene)(Fb-DPEN)]] — what was its LC50?
a: 1.5 µM

q: Given the entry Cc1ccc(C(C)C)cc1.O=S(=O)(c1ccccc1)[N]1[Os][NH][C@H](c2ccccc2)[C@H]1c1ccccc1 [Complex 5, [Os(p-cymene)(Bs-DPEN)]] , report its measured LC50.
a: 1.5 µM

q: Would you kindly share the measured LC50 for F[P-](F)(F)(F)(F)F.Oc1ccc(N=Nc2ccccn2)cc1.[I][Os+].c1ccc(-c2ccccc2)cc1 [Complex 13, [Os(Azpy-OH)(biphenyl)I]PF6] ?
a: 7.2 µM

q: I would be grateful if you could share the reported LC50 for N.N.O=C([O-])C1(C(=O)[O-])CCC1.[Pt+2] [carboplatin, reference compound] .
a: 7.1 µM

q: I am curious: what LC50 value has been reported for CN(C)c1ccc(N=Nc2ccccn2)cc1.Cc1ccc(C(C)C)cc1.F[P-](F)(F)(F)(F)F.[Cl][Os+] [Complex 9, [Os(Azpy-NMe2)(p-cymene)Cl]PF6] ?
a: 12 µM

More entries:
q: Endpoint output: LC50 of CS(=O)(=O)[N]1[Os][NH][C@H](c2ccccc2)[C@H]1c1ccccc1.Cc1ccc(C(C)C)cc1 [Complex 2, [Os(p-cymene)(Ms-DPEN)]] . Value?
a: 2.8 µM
